# System Name: ACL (Homo sapiens (Human))
# Sequence (P53396 other isoform, or with tags, fused parts or gaps isoform P53396-2): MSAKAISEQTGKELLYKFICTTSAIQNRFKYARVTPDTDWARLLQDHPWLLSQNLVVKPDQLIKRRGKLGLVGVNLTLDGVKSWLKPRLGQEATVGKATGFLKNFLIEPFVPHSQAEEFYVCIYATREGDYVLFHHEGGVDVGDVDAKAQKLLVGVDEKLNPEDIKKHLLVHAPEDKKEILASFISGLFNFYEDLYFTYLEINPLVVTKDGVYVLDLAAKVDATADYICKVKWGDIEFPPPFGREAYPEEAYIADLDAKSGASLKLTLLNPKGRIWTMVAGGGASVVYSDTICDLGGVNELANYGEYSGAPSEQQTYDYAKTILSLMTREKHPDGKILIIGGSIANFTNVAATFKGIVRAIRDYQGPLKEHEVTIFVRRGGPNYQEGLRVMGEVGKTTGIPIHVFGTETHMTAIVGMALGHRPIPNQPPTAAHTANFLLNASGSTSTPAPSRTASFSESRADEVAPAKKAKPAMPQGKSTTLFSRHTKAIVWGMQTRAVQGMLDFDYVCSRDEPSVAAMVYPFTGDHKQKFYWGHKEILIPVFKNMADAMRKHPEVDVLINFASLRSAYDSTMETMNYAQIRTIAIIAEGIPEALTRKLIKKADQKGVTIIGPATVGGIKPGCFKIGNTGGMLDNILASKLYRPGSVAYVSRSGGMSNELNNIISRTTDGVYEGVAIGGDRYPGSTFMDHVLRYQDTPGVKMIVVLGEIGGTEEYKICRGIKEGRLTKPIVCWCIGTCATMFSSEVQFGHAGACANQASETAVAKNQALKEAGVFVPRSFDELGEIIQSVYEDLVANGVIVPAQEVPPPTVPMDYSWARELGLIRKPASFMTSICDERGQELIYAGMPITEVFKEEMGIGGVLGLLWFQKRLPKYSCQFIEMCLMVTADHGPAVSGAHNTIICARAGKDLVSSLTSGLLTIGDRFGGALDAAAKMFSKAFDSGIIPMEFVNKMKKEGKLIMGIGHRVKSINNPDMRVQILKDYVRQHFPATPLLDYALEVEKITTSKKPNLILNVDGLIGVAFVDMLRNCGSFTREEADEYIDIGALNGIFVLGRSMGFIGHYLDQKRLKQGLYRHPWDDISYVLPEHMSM
# Assay Protocol: ADP-Glo Assay
pIC50: −log10 of the molar value.
Each item that follows carries a reported pIC50.

1. O=C(O)c1ccc(-c2ccccc2)cc1NS(=O)(=O)c1ccccc1 :: 4.70 to 6.30
2. O=c1[nH]cc(Cl)cc1S(=O)(=O)Nc1cc(-c2ccccc2)c(F)cc1F :: 6.30 to 7.30
3. O=S(=O)(Nc1cc(-c2ccccc2)ccc1F)c1cc(-c2nn[nH]n2)ccc1F :: < 4.70
4. O=C(O)c1ccc(-c2ccccc2)cc1NS(=O)(=O)C1CCC1 :: 4.70 to 6.30
5. COC(=O)c1ccc(-c2ccccc2)cc1NS(=O)(=O)c1cc(Cl)cnc1O :: 4.70 to 6.30

Input line: Any idea what pIC50 was measured for O=C(c1cc(Cl)c(O)c(S(=O)(=O)Nc2cc(-n3nccn3)ccc2F)c1)N1CCC1 ?
Output line: 6.30 to 7.30

Input line: Any idea what pIC50 was measured for Cc1noc(C)c1S(=O)(=O)Nc1cc(-c2ccccc2)ccc1C(=O)O ?
Output line: 4.70 to 6.30

Input line: Any idea what pIC50 was measured for O=C(O)c1cc(Cl)c(O)c(S(=O)(=O)Nc2cc(-c3cccs3)c(F)cc2F)c1 ?
Output line: 4.70 to 6.30

Input line: Any idea what pIC50 was measured for O=S(=O)(c1cc(Cl)cc(Br)c1O)N(Cc1ccccc1)c1cc(-c2ccccc2)ccc1F ?
Output line: 4.70 to 6.30

Input line: Any idea what pIC50 was measured for N#Cc1cc(S(=O)(=O)Nc2cc(-c3ccccc3)c(F)cc2F)ccc1Cl ?
Output line: 4.70 to 6.30

Input line: Any idea what pIC50 was measured for O=S(=O)(NC1CCN(c2ccccc2)C1)c1cc(Cl)cc(Cl)c1O (stereo not drawn) ?
Output line: 4.70 to 6.30

Input line: Any idea what pIC50 was measured for Cc1c(C(=O)O)cc(Cl)c(O)c1S(=O)(=O)Nc1cc(-c2ccccc2)c(F)cc1F ?
Output line: 4.70 to 6.30

Input line: Any idea what pIC50 was measured for O=S(=O)(Nc1cc(-c2ccccc2)c(F)cc1F)c1cccc2c1OCCO2 ?
Output line: < 4.70

Input line: Any idea what pIC50 was measured for COc1ccc(-c2ccccc2)cc1NS(=O)(=O)c1cc(C(=O)N2CCC2)cc(Cl)c1OC ?
Output line: < 4.70

Input line: Any idea what pIC50 was measured for O=C(O)c1cc(Cl)c(O)c(S(=O)(=O)Nc2ccc(F)c(-c3ccccc3)c2F)c1 ?
Output line: < 4.70

Input line: Any idea what pIC50 was measured for CCS(=O)(=O)Nc1ccc(S(=O)(=O)Nc2cc(-c3ccccc3)ccc2F)c(OC)c1 ?
Output line: < 4.70

Input line: Any idea what pIC50 was measured for O=S(=O)(Nc1cccc(-n2nccn2)c1)c1cc(Cl)cc(Cl)c1O ?
Output line: 4.70 to 6.30

Input line: Any idea what pIC50 was measured for O=C(O)c1ccc(-c2cc3ccccc3s2)cc1NS(=O)(=O)c1cc(Cl)cc(C(F)(F)F)c1 ?
Output line: 4.70 to 6.30

Input line: Any idea what pIC50 was measured for O=C(c1cc(Cl)c(O)c(S(=O)(=O)Nc2cc(-c3ccccc3)c(F)cc2F)c1)N1Cc2ccccc2C1 ?
Output line: 6.30 to 7.30

Input line: Any idea what pIC50 was measured for COc1c(Cl)cc(Cl)cc1S(=O)(=O)Nc1cc(-c2ccccc2)ccc1C(=O)O ?
Output line: 6.30 to 7.30

Input line: Any idea what pIC50 was measured for CC(C)(C)OC(=O)COc1ccc(-c2ccccc2)cc1NS(=O)(=O)c1cc(C(=O)N2CCC2)cc(Cl)c1O ?
Output line: 4.70 to 6.30

Input line: Any idea what pIC50 was measured for CNC(=O)c1cc(Cl)c(O)c(S(=O)(=O)Nc2cc(-c3ccccc3)c(F)cc2F)c1 ?
Output line: 6.30 to 7.30

Input line: Any idea what pIC50 was measured for CCS(=O)(=O)Nc1cc(OC)ccc1S(=O)(=O)Nc1cc(-c2ccccc2)ccc1F ?
Output line: 4.70 to 6.30

Input line: Any idea what pIC50 was measured for N#Cc1cc(Cl)cc(S(=O)(=O)Nc2cc(-c3ccccc3)ccc2O)c1 ?
Output line: 4.70 to 6.30

Input line: Any idea what pIC50 was measured for O=S(=O)(Nc1cc(-c2ccccc2)c(F)cc1F)c1cc(-c2nnn[nH]2)cc(Cl)c1O ?
Output line: 4.70 to 6.30
